Data provenance is the supplement of paper PMC3334620.

Field: PBM E-score. Provide a value for each of the sequences that follow.
Biological target: Yap3 (UniProt P38749)
Sequence: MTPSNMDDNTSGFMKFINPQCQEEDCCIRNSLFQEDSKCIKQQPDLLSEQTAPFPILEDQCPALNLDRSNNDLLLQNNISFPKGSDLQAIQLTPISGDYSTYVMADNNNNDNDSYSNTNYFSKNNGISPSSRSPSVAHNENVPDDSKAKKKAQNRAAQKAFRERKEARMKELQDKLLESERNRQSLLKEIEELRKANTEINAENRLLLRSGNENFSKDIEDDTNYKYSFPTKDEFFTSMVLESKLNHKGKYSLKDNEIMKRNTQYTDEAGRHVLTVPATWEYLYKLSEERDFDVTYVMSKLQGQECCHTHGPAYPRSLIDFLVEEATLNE
Assay: PBM E-score (8-mer binding enrichment) (E-score (-0.5 to 0.5)); higher = stronger / more preferred TF binding
Settings: protein concentration: 100 nM; construct: GST-full length
The full ranking holds about 33,000 sequences; the median of “E-score (-0.5 to 0.5)” is about -0.0034, and the highest 2% start at about 0.25. This is one part of a sample in which the highest values are shown more often than they occur.
Give a plain numeric answer without units written out.

Q: Form: Entry = `TCTATTCA` | System = Yap3 (UniProt P38749) | PBM E-score = ____
A: 0.222

Q: How about `ACCTAGTA` ?
A: -0.119

Q: Same read-out for `CACGCCTA` ?
A: -0.1

Q: Next sequence up: `ATATTGAC`
A: 0.069

Q: # iterate: `GTATCCGA`
A: -0.0824

Q: And then `CATGACCC` , what is it?
A: -0.0127

Q: How about this sequence: `CCGCAAAA`
A: 0.076

Q: And `AATCTGCG` ?
A: -0.0221

Q: Also check `ACTACACG`
A: 0.0255

Q: Consider next the sequence `CAATCGGC` in the same way.
A: -0.0271

Q: Now the same for `GTAACAGA`
A: 0.105

Q: What do we get for `ATACGTTA` ?
A: 0.0384

Q: # iterate: `CGTATTAC`
A: 0.231

Q: Continue with `CTTTGTAA`
A: 0.27

Q: // same read-out, input: `CACTAATA`
A: 0.225

Q: How about `GTGAGTAA` ?
A: 0.154

Q: And what about the sequence `ACCTAATA` ?
A: 0.274

Q: `ATGTGGAC` ?
A: -0.0215

Q: Also `AGTATTAC` ?
A: 0.26

Q: What do you get for `GCAAACAA` ?
A: 0.272

Q: Also `GACGCTGC` ?
A: -0.0366

Q: Try `GCAGGTTA` next.
A: -0.0925

Q: Same question for `GCAAACAC` please.
A: -0.0377

Q: Please give the result for `ACCTATTA` too.
A: 0.11

Q: // query: `TACTACTA`
A: 0.223

Q: Another sequence: `CCATCTTA`
A: 0.00932

Q: Check `GTTGGTAA` too.
A: 0.149

Q: Consider next the sequence `AGTAATAA` in the same way.
A: 0.254

Q: And then `ACCTAATC` , what is it?
A: 0.245

Q: Another sequence: `AACTCAAA`
A: 0.187

Q: How about this sequence: `TCCTGTCA`
A: -0.0145

Q: How about this sequence: `ATTACTCC`
A: 0.143

Q: Continue with `GATGTCCC`
A: -0.134

Q: Next: `ACAAACAA`
A: 0.173

Q: Subsequent entry: `ATACGTCA`
A: 0.0839

Q: Similarly, `ATCCAGTG` ?
A: 0.0972

Q: Do the same for `GCAGATCC` please
A: 0.0102

Q: Also need `AGCTACTA` , thanks.
A: 0.0917

Q: Same lookup for `CTTACTTA` , please.
A: 0.113

Q: // query: `CTACGTCA`
A: -0.0902

Q: // same read-out, input: `GTCAAAGA`
A: -0.0517

Q: Same question, `ATTTGTAC` this time
A: 0.0689

Q: Try `ACATTTAA` next.
A: 0.221

Q: Next up: `GTACGTCA`
A: 0.267

Q: Also need `TAGATGAA` , thanks.
A: 0.082

Q: Input `ATTACACA`
A: 0.255

Q: Same question for `ATTGTCCG` please.
A: 0.216

Q: Consider next the sequence `CCGCCTAA` in the same way.
A: -0.155

Q: Another sequence: `ACCACCAC`
A: -0.00648

Q: Proceed to `ACATCGAT`
A: 0.0921

Q: Lookup `ATACCAAC`
A: 0.202

Q: Same for `ACTACACA`
A: 0.258

Q: How about `AAATAAGC` ?
A: 0.12

Q: Also `CGGATGAA` ?
A: 0.265

Q: // repeat for `AAAAACTA` and report
A: 0.256

Q: Next: `CCACTAAG`
A: 0.0472

Q: What do you get for `ATTCATTA` ?
A: 0.174

Q: Also `GCGAATCA` ?
A: 0.173

Q: // same read-out, input: `ACTTAGGG`
A: -0.112

Q: And what about the sequence `ATGAGTAA` ?
A: 0.284

Q: What do we get for `ATTTGTAA` ?
A: 0.373

Q: Please give the result for `CACTACTG` too.
A: 0.0352

Q: Item: `AGCTGGAA`
A: -0.178

Q: Another sequence to look at: `GGGCTGCA`
A: -0.195

Q: Follow-up item: `ATAAACAC`
A: 0.1

Q: How about this sequence: `TACATGTA`
A: 0.255

Q: How about `AGCTCTAG` ?
A: -0.0862

Q: Now this one: `CGGATGAG`
A: -0.0331

Q: Now give it for `CTACGTTA` too.
A: 0.0868

Q: Entry `AGTTGATC` please
A: 0.0597

Q: How about `ATAAGATG` ?
A: 0.176

Q: Same lookup for `TTAAACAA` , please.
A: -0.026

Q: // same read-out, input: `CTGGTATA`
A: -0.0636

Q: Query `CTGAGTAA` next
A: 0.246

Q: Field entry: `CCTACACG`
A: -0.251

Q: Then this sequence: `ACCTCCTC`
A: -0.145

Q: Entry to check: `ATAAACAA`
A: 0.279

Q: Could you do the same for `GCCTAATA` , please?
A: 0.0577

Q: Query `ATTACACC` next
A: 0.215

Q: Same again, this time with `CTTGGTAC`
A: 0.172

Q: Please do the same for `CGTCGCAG` as well.
A: -0.0218

Q: Can you handle `AGGTATGG` next?
A: -0.0324

Q: Also `ATTACTTA` ?
A: 0.257

Q: And `GAAAACTA` ?
A: 0.16
